Please respond with reported log kw, IAM for every item in the list.
# assay details: Biomimetic IAM chromatography (log kw, IAM)
# Assay type: physicochemical
# cond: IAM.PC.DD2 column, buffered acetonitrile, pH 7.4, 25 °C, extrapolated to buffer
Keep it simple and answer with nothing but the number.

Entry `c1ccc(N2CCn3cnnc32)cc1` : reported log kw, IAM = ? 0.10

Entry `O=c1c(-c2ccc([N+](=O)[O-])cc2)nnc2n1CCN2c1ccccc1` : reported log kw, IAM = ? 1.92

Entry `Cc1cccc(N2CCn3c2nnc(-c2ccc([N+](=O)[O-])cc2)c3=O)c1C` : reported log kw, IAM = ? 1.78

Entry `Cc1ccccc1N1CCn2c1nnc(-c1cccs1)c2=O` : reported log kw, IAM = ? 1.54

Entry `Clc1ccc(N2CCn3c(COc4ccc(Cl)cc4Cl)nnc32)cc1` : reported log kw, IAM = ? 2.25

====

# assay details: Biomimetic IAM chromatography (log kw, IAM)
# Type: physicochemical
# cond: IAM.PC.DD2 column, buffered acetonitrile, pH 7.4, 25 °C, extrapolated to buffer
# Protocol: High performance liquid chromatography (HPLC) measurements were performed on a Shimadzu Vp liquid chromatographic system (Shimadzu, Izabelin, Poland). […] Buffered acetonitrile mixtures were used as effluents. Acetonitrile concentration, expressed as a volume fraction, was varied within a range from 0.2 to 0.5, with a constant step of 0.1. […] The dead time values were measured from sodium chloride peaks. […]
observed property: log kw, IAM
Keep it simple and answer with nothing but the number.

Entry `Clc1cccc(N2CCn3cnnc32)c1` : reported log kw, IAM = ? 0.64

Entry `Clc1ccc(N2CCn3c(COc4cc(Cl)c(Cl)cc4Cl)nnc32)cc1` : reported log kw, IAM = ? 2.55

Entry `CCOc1ccc(N2CCn3c2nnc(CC(=O)NN)c3=O)cc1` : reported log kw, IAM = ? 0.06

====

# assay details: Biomimetic IAM chromatography (log kw, IAM)
# Format: physicochemical
# cond: IAM.PC.DD2 column, buffered acetonitrile, pH 7.4, 25 °C, extrapolated to buffer
For each record, check the reported log kw, IAM: if it is below 2 write Condition met, else write Condition not met.

log kw, IAM under 2? Item: `c1ccc(OCc2nnc3n2CCN3c2ccccc2)cc1` Condition met

log kw, IAM under 2? Item: `COc1ccccc1N1CCn2c1nnc(-c1ccc([N+](=O)[O-])cc1)c2=O` Condition met

log kw, IAM under 2? Item: `Cc1ccc(N2CCn3cnnc32)cc1` Condition met

log kw, IAM under 2? Item: `O=c1c(-c2cccs2)nnc2n1CCN2c1ccc(Cl)c(Cl)c1` Condition not met

log kw, IAM under 2? Item: `Cc1ccc(N2CCn3c2nnc(-c2ccc([N+](=O)[O-])cc2)c3=O)cc1` Condition met

log kw, IAM under 2? Item: `NNC(=O)Cc1nnc2n(c1=O)CCN2c1ccc(Cl)cc1` Condition met

log kw, IAM under 2? Item: `Cc1ccc(N2CCn3c2nnc(-c2cccs2)c3=O)cc1` Condition met

log kw, IAM under 2? Item: `O=c1c(-c2ccc([N+](=O)[O-])cc2)nnc2n1CCN2c1ccccc1Cl` Condition not met

log kw, IAM under 2? Item: `O=c1c(-c2ccc([N+](=O)[O-])cc2)nnc2n1CCN2c1ccc(Cl)cc1` Condition not met

====

# assay details: Biomimetic IAM chromatography (log kw, IAM)
# Type: physicochemical
# cond: IAM.PC.DD2 column, buffered acetonitrile, pH 7.4, 25 °C, extrapolated to buffer
For each record, check the reported log kw, IAM: if it is below 2 write T, else write F.

log kw, IAM under 2? Item: COc1ccc(N2CCn3cnnc32)cc1 [Compound 3] T

log kw, IAM under 2? Item: Cc1cc(Cl)ccc1OCc1nnc2n1CCN2c1ccccc1 [Compound 8] T

log kw, IAM under 2? Item: O=c1c(-c2cccs2)nnc2n1CCN2c1cccc(Cl)c1 [Compound 78] F

log kw, IAM under 2? Item: O=c1c(-c2cccs2)nnc2n1CCN2c1ccccc1 [Compound 72] T

log kw, IAM under 2? Item: Cc1ccc(N2CCn3c2nnc(CC(=O)NN)c3=O)cc1 [Compound 57] T

log kw, IAM under 2? Item: NNC(=O)Cc1nnc2n(c1=O)CCN2c1ccccc1 [Compound 56] T

log kw, IAM under 2? Item: O=c1c(-c2cccs2)nnc2n1CCN2c1ccccc1Cl [Compound 77] T

log kw, IAM under 2? Item: Cc1cc(Cl)ccc1OCc1nnc2n1CCN2c1ccc(Cl)cc1 [Compound 11] F

log kw, IAM under 2? Item: COc1ccc(N2CCn3c(COc4ccc(Cl)cc4)nnc32)cc1 [Compound 7] T

log kw, IAM under 2? Item: Cc1cccc(N2CCn3c2nnc(-c2cccs2)c3=O)c1C [Compound 75] T

log kw, IAM under 2? Item: O=c1c(-c2cccs2)nnc2n1CCN2c1ccc(Cl)cc1 [Compound 79] T

log kw, IAM under 2? Item: O=c1c(-c2ccc([N+](=O)[O-])cc2)nnc2n1CCN2c1ccc(Cl)c(Cl)c1 [Compound 101] F

log kw, IAM under 2? Item: COc1ccccc1N1CCn2c1nnc(-c1cccs1)c2=O [Compound 76] T

log kw, IAM under 2? Item: Clc1ccc(OCc2nnc3n2CCN3c2ccc(Cl)cc2)cc1 [Compound 10] T

log kw, IAM under 2? Item: Clc1ccc(N2CCn3cnnc32)cc1Cl [Compound 5] T

log kw, IAM under 2? Item: COc1ccc(N2CCn3c2nnc(CC(=O)NN)c3=O)cc1 [Compound 58] T

log kw, IAM under 2? Item: Cc1ccccc1N1CCn2c1nnc(-c1ccc([N+](=O)[O-])cc1)c2=O [Compound 94] F

log kw, IAM under 2? Item: Clc1ccc(OCc2nnc3n2CCN3c2ccc(Cl)c(Cl)c2)c(Cl)c1 [Compound 13] F
